So I've got a bunch of compounds here, and I need their pEC50 values.
systemName: UniProt P43220
assayProcedure: GLP-1R agonist cAMP stimulation assay (HTRF cAMP)
conditionSummary: HEK293 cell line expressing GLP-1 target; HTRF cAMP agonist mode, 30 min at RT
// returns pEC50 (minus log10 of molar concentration), number only

IN: Suppose we examine the compound Cc1cc(C(=O)Nc2ccc3c(c2)nc(CN2CC=C(c4cccc(OCc5ccc(Cl)cc5F)n4)CC2)n3C[C@@H]2CCO2)cc2c(C3CC3)n[nH]c12 ; what pEC50 value has been reported?
OUT: 8.79

IN: Suppose we examine the compound Cc1n[nH]c2ccc(C(=O)Nc3ccc4c(c3)nc(CN3CC=C(c5cccc(OCc6ccc(Cl)cc6F)n5)CC3)n4C[C@@H]3CCO3)cc12 ; what pEC50 value has been reported?
OUT: 9.85

IN: Suppose we examine the compound Cc1n[nH]c2c(C(F)(F)F)cc(C(=O)Nc3ccc4c(c3)nc(C3CC35CCN(c3cccc(OCc6ccc(Cl)cc6F)n3)CC5)n4C[C@@H]3CCO3)cc12 (stereo partly drawn) ; what pEC50 value has been reported?
OUT: 8.70

IN: Suppose we examine the compound O=C(Nc1ccc2nc(CN3CC=C(c4cccc(OCc5ccc(Cl)cc5F)n4)CC3)n(C[C@@H]3CCO3)c2c1)c1ccc2c(c1)C1(CC1)C(=O)N2 ; what pEC50 value has been reported?
OUT: 8.92

IN: Suppose we examine the compound Cc1n[nH]c2c(F)cc(NC(=O)c3ccc4nc(CN5CC=C(c6cccc(OCc7ccc(Cl)cc7F)n6)CC5)n(CC5CCO5)c4c3)cc12 (stereo not drawn) ; what pEC50 value has been reported?
OUT: 8.51

IN: Suppose we examine the compound C=C(C)c1n[nH]c2ccc(C(=O)Nc3ccc4c(c3)nc(C3CC35CCN(c3cccc(OCc6ccc(Cl)cc6F)n3)CC5)n4CC3CCO3)cc12 (stereo not drawn) ; what pEC50 value has been reported?
OUT: 9.32

IN: Suppose we examine the compound Cc1cc(NC(=O)c2ccc3c(c2)nc(CN2CCC(c4cccc(OCc5ccc(Cl)cc5F)n4)CC2)n3C[C@@H]2CCO2)cc2c1NC(=O)C21CC1 ; what pEC50 value has been reported?
OUT: 9.11

IN: Suppose we examine the compound O=C(NCc1ccc(O)cc1)c1ccc2c(c1)nc(CN1CCC(c3cccc(OCc4ccc(Cl)cc4F)n3)CC1)n2C[C@@H]1CCO1 ; what pEC50 value has been reported?
OUT: 7.05

IN: Suppose we examine the compound Cc1n[nH]c2ncc(C(=O)Nc3ccc4c(c3)nc(CN3CC=C(c5cccc(OCc6ccc(Cl)cc6F)n5)CC3)n4C[C@@H]3CCO3)nc12 ; what pEC50 value has been reported?
OUT: 7.92

IN: Suppose we examine the compound CC(C)c1n[nH]c2ccc(C(=O)Nc3ccc4c(c3)nc(CN3CC=C(c5cccc(OCc6ccc(Cl)cc6F)n5)CC3)n4C[C@@H]3CCO3)cc12 [Compound 223] ; what pEC50 value has been reported?
OUT: 9.02

IN: Suppose we examine the compound Cc1n[nH]c2c(Cl)cc(NC(=O)c3ccc4c(c3)nc(CN3CC=C(c5cccc6c5OC(C)(c5ccc(Cl)cc5F)O6)CC3)n4CC3CCO3)cc12 (stereo not drawn) ; what pEC50 value has been reported?
OUT: 9.00

----------
So I've got a bunch of compounds here, and I need their log10 EC50 values.
systemName: GLP-1R (Homo sapiens, UniProt P43220)
Sequence (P43220 24-463): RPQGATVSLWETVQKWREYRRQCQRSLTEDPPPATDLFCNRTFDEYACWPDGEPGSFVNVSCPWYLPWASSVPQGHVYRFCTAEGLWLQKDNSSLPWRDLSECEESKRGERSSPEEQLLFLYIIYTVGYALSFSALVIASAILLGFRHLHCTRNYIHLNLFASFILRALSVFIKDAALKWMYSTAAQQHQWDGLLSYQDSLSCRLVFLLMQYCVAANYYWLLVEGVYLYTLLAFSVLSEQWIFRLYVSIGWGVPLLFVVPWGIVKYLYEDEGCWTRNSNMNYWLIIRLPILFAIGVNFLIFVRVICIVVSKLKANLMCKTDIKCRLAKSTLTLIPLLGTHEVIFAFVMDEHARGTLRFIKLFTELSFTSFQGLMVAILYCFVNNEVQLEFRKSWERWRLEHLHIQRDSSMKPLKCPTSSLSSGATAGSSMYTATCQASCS
assayProcedure: GLP-1R agonist cAMP stimulation assay (HTRF cAMP)
conditionSummary: HEK293 cell line expressing GLP-1 target; HTRF cAMP agonist mode, 30 min at RT
Note: values are log10 of EC50 expressed in nM.

IN: Record lookup: for GLP-1R (Homo sapiens, UniProt P43220), what log10 EC50 belongs to Cc1n[nH]c2c(F)cc(C(=O)Nc3ccc4c(c3)nc(Cc3c(F)cc(-c5cccc6c5O[C@](C)(c5ccc(Cl)cn5)O6)cc3F)n4CC3CCO3)cc12 (stereo partly drawn) [Compound 387] ?
OUT: -0.07

IN: Record lookup: for GLP-1R (Homo sapiens, UniProt P43220), what log10 EC50 belongs to Cc1n[nH]c2c(C(F)F)cc(C(=O)Nc3ccc4c(c3)nc(CN3CC=C(c5cccc(OCc6ccc(Cl)cc6F)n5)CC3)n4C[C@@H]3CCO3)cc12 [Compound 220] ?
OUT: -0.36

IN: Record lookup: for GLP-1R (Homo sapiens, UniProt P43220), what log10 EC50 belongs to Cc1cc(NC(=O)c2ccc3c(c2)nc(CN2CC=C(c4cccc(OCc5ccc(Cl)cc5F)n4)CC2)n3C[C@@H]2CCO2)c(C)c2c(C)n[nH]c12 [Compound 173] ?
OUT: 1.50

IN: Record lookup: for GLP-1R (Homo sapiens, UniProt P43220), what log10 EC50 belongs to COCCn1c(CN2CCC(c3cccc(OCc4ccc(Cl)cc4F)n3)CC2)nc2cc(C(=O)NCCc3cccc(O)c3)ccc21 [Compound 19] ?
OUT: 2.25

IN: Record lookup: for GLP-1R (Homo sapiens, UniProt P43220), what log10 EC50 belongs to Cc1cc2cc(C(=O)Nc3ccc4c(c3)nc(CN3CC=C(c5cccc(OCc6ccc(Cl)cc6F)n5)CC3)n4C[C@@H]3CCO3)ccc2[nH]1 [Compound 394] ?
OUT: 1.32

----------
systemName: GLP-1R (Homo sapiens, UniProt P43220)
assayProcedure: GLP-1R agonist cAMP stimulation assay (HTRF cAMP)
conditionSummary: HEK293 cell line expressing GLP-1 target; HTRF cAMP agonist mode, 30 min at RT
reportedEndpoint: log10 EC50 (log10 of the value in nM)
Note: values are log10 of EC50 expressed in nM.

IN: Record lookup: for GLP-1R (Homo sapiens, UniProt P43220), what log10 EC50 belongs to Cc1n[nH]c2c(C)cc(C(=O)Nc3ccc4c(c3)nc(CN3CC=C(c5cccc(OCc6ccc(C#N)cc6F)n5)CC3)n4C[C@@H]3CCO3)cc12 [Compound 229] ?
OUT: -0.68

IN: Record lookup: for GLP-1R (Homo sapiens, UniProt P43220), what log10 EC50 belongs to CC1(c2ccc(C#N)cc2F)Oc2cccc(C3=CCN(Cc4nc5cc(NC(=O)c6ccc7[nH]nc(C8CC8)c7c6)ccc5n4CC4CCO4)CC3)c2O1 (stereo not drawn) [Compound 312] ?
OUT: 0.00

IN: Record lookup: for GLP-1R (Homo sapiens, UniProt P43220), what log10 EC50 belongs to Cc1cc(C(=O)Nc2ccc3c(c2)nc(CN2CC=C(c4cccc(OCc5ccc(Cl)cc5F)n4)CC2)n3C[C@@H]2CCO2)cc2c1NC(=O)C21CC1 [Compound 209] ?
OUT: -0.49

IN: Record lookup: for GLP-1R (Homo sapiens, UniProt P43220), what log10 EC50 belongs to COCCn1c(CN2CCC(c3cccc(OCc4ccc(Cl)cc4F)n3)CC2)nc2cc(C(=O)NCc3ccc4[nH]c(=O)[nH]c4c3)ccc21 [Compound 38] ?
OUT: 1.25

IN: Record lookup: for GLP-1R (Homo sapiens, UniProt P43220), what log10 EC50 belongs to Cc1n[nH]c2ccc(C(=O)Nc3ccc4c(c3)nc(CN3CC=C(c5cccc(OCc6ccc(Cl)cc6F)n5)CC3)n4C[C@@H]3CCO3)nc12 [Compound 239] ?
OUT: 0.50

IN: Record lookup: for GLP-1R (Homo sapiens, UniProt P43220), what log10 EC50 belongs to Cc1n[nH]c2ccc(C(=O)Nc3ccc4c(c3)nc(CN3CCC(c5cccc6c5OC(C)(c5ccc(Cl)cc5F)O6)CC3)n4CC3CCO3)cc12 (stereo not drawn) [Compound 342] ?
OUT: -0.04

----------
The reader will find Ki measurements below, all made with GLP-1R (Homo sapiens, UniProt P43220).
Include the unit right after the number.

IN: Suppose we examine the compound CCn1cncc1Cn1c(Cc2c(F)cc(-c3cccc4c3OC(C)(c3ccc(Cl)cn3)O4)cc2F)nc2cc(NC(=O)c3cc(F)c4[nH]nc(C)c4c3)ccc21 (stereo not drawn) ; what Ki value has been reported?
OUT: 237 nM

IN: Suppose we examine the compound Cc1n[nH]c2c(C)cc(C(=O)Nc3ccc4c(c3)nc(C3CC35CCN(c3cccc(OCc6ccc(Cl)cc6F)n3)CC5)n4CC3CCO3)cc12 (stereo not drawn) ; what Ki value has been reported?
OUT: 82.3 nM

IN: Suppose we examine the compound CCn1cncc1Cn1c(Cc2c(F)cc(-c3cccc(OCc4ccc(Cl)cc4F)n3)cc2F)nc2cc(NC(=O)c3cc(F)c4[nH]nc(C)c4c3)ccc21 ; what Ki value has been reported?
OUT: 117 nM

IN: Suppose we examine the compound Cc1n[nH]c2c(C)cc(C(=O)Nc3ccc4c(c3)nc(CN3CC=C(c5cccc(OCc6ccc(Cl)cc6F)n5)CC3)n4C[C@@H]3CCO3)cc12 ; what Ki value has been reported?
OUT: 84 nM

IN: Suppose we examine the compound Cc1n[nH]c2ccc(C(=O)Nc3ccc4c(c3)nc(CN3CCC(c5cccc6c5OC(C)(c5ccc(Cl)cc5F)O6)CC3)n4CC3CCO3)cc12 (stereo not drawn) ; what Ki value has been reported?
OUT: 72.2 nM

IN: Suppose we examine the compound O=C(Nc1ccc2[nH]nnc2c1)c1ccc2c(c1)nc(CN1CC=C(c3cccc(OCc4ccc(Cl)cc4F)n3)CC1)n2C[C@@H]1CCO1 ; what Ki value has been reported?
OUT: 1320 nM

IN: Suppose we examine the compound Cc1n[nH]c2c(C)cc(NC(=O)c3ccc4c(c3)nc(CN3CC=C(c5cccc(OCc6ccc(Cl)cc6F)n5)CC3)n4C[C@@H]3CCO3)cc12 ; what Ki value has been reported?
OUT: 519 nM

IN: Suppose we examine the compound Cc1n[nH]c2c(C)cc(NC(=O)c3ccc4c(c3)nc(CN3CC=C(c5cccc6c5O[C@@](C)(c5ccc(Cl)cn5)O6)CC3)n4CC3CCO3)cc12 (stereo partly drawn) ; what Ki value has been reported?
OUT: 342 nM

IN: Suppose we examine the compound Cc1n[nH]c2c(F)cc(C(=O)Nc3ccc4c(c3)nc(Cc3cc(F)c(-c5cccc(OCc6ccc(Cl)cc6F)n5)cc3F)n4C3COC[C@H]3O)cc12 (stereo partly drawn) ; what Ki value has been reported?
OUT: 69.2 nM

IN: Suppose we examine the compound Cc1n[nH]c2ccc(NC(=O)c3ccc4c(c3)nc(CN3CC=C(c5cccc6c5O[C@@](C)(c5ccc(Cl)cc5F)O6)CC3)n4C[C@@H]3CCO3)cc12 ; what Ki value has been reported?
OUT: 911 nM

IN: Suppose we examine the compound O=C(NCC(=O)N1CC(F)(F)C[C@H]1C(=O)O)c1ccc2c(c1)nc(CN1CCC(c3cccc(OCc4ccc(Cl)cc4F)n3)CC1)n2C[C@@H]1CCO1 ; what Ki value has been reported?
OUT: 1320 nM

IN: Suppose we examine the compound Cc1n[nH]c2c(C)cc(NC(=O)c3ccc4c(c3)nc(CN3CC=C(c5cccc6c5O[C@](C)(c5ccc(Cl)cn5)O6)CC3)n4CC3CCO3)cc12 (stereo partly drawn) ; what Ki value has been reported?
OUT: 899 nM
